The measurements presented in this section are drawn from PubChem BioAssay.

Protocol notes: survival rescue of mitochondrial mutant cells in low glucose, primary screen, MELAS cybrids, Rieske KO mouse fibroblasts, CellTiter-Glo (AID 1508586);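 further: test concentration not given here; z relative to plate mean and SD of compound and empty wells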
Experimental setup: Rieske KO mouse fibroblast survival, CellTiter-Glo 72 h

| Molecule | z-score |
| --- | --- |
| O=c1c2ccccc2[se]n1-c1ccccc1 | 2.16 |
| C=CC[C@]1(O)CC[C@H]2[C@@H]3CCC4=CC(=O)CCC4=C3C=C[C@@]21C | 0.629 |
| CN1C[C@H](C(=O)N[C@]2(C)O[C@@]3(O)[C@@H]4CCCN4C(=O)[C@H](Cc4ccccc4)N3C2=O)C=C2c3cccc4[nH]cc(c34)C[C@H]21 | -0.32 |
| CC(C)(C)[C@@]1(O)C[C@@H]2OC(=O)C[C@@]23C(=O)O[C@H]2OC(=O)C(O)C213 (stereo partly specified) | 0.895 |
| C1=C2CCCN[C@H]2[C@@H]2C[C@H]1[C@H]1CCCCN1C2 | 0.546 |
| CCCN1CCC[C@@H]2Cc3[nH]ncc3C[C@H]21 | -0.161 |
| Cc1sc2c(c1C)C(c1ccc(Cl)cc1)=NC(CC(=O)OC(C)(C)C)c1nnc(C)n1-2 (stereo unspecified) | -3.85 |
| C[C@]12CCC3[C@@H](CC[C@@H]4C[C@H](O)CC[C@]34C)[C@@H]1CCC2=O (stereo partly specified) | 0.448 |
| CC(=O)O[C@H]1CC[C@@]2(C)C(=CC[C@@H]3[C@@H]2CC[C@]2(C)C(=O)CC[C@@H]32)C1 | -0.302 |
| CCc1cc2c(s1)-n1c(C)nnc1CN=C2c1ccccc1Cl | -0.187 |
| CNC(=O)Oc1cc(C)c(/C=C/c2cncc(C(=O)NC)c2)c(C)c1 | 0.0985 |
| NCC(CC(=O)O)c1ccc(Cl)cc1 (stereo unspecified) | -0.464 |
| C1CCN(C2CCNCC2)CC1 | 0.0453 |
| O=C(NCC1CCOCC1)c1cnc(Nc2ccc(Cl)cc2Cl)nc1C(F)(F)F | -0.797 |
| Clc1ccc(C(Cn2ccnc2)OCc2ccc(Sc3ccccc3)cc2)c(Cl)c1 (stereo unspecified) | 0.16 |
| Cc1sc2c(c1C)C(c1ccc(Cl)cc1)=NC(CC(N)=O)c1nnc(C)n1-2 (stereo unspecified) | -3.88 |
| CC[N+]1(C)CCCC(OC(=O)C(O)(c2ccccc2)c2ccccc2)C1 (stereo unspecified) | -0.323 |
| C(#CCN1CCCC1)CN1CCCC1 | -0.183 |
| Clc1ccc(C(OCCN2CCCCC2)c2ccccc2)cc1 (stereo unspecified) | -0.41 |
| COCC1OC(=O)c2coc3c2[C@@]1(C)C1=C(C3=O)[C@@H]2CCC(=O)[C@@]2(C)CC1OC(C)=O (stereo partly specified) | -0.534 |
| C[C@@H](N)[C@@H](O)c1ccccc1 | -0.509 |
